For each entry below, report its z-score value.
- assay-summary: FRG1 promoter luciferase signal modulators, primary screen, FRG1 inhibition for FSHD, cell-based, C2C12 myotubes, firefly/Renilla luciferase, luminescence (AID 1084)
- conditions-used: higher = more signal, called active from +8 up or from −8 down
API note: the answer field is a bare number with no unit suffix.

Q: Item CO[C@H]1O[C@H](CO)[C@@H](OC(=O)Nc2ccc(C(F)(F)F)cc2)[C@H](OC(=O)Nc2ccc3c(c2)OCO3)[C@@H]1OC(=O)Nc1ccc2c(c1)OCO2 has what recorded z-score?
Ans: 3.93

Q: State the recorded z-score for this entry: COC(=O)[C@@]1(Cc2ccc(F)cc2)[C@H]2c3cc(C(=O)N(C)C)n(Cc4cc(F)c(F)c(F)c4)c3C[C@H]2CN1C(=O)c1ccccc1
Ans: 0.621

Q: // query z-score value for entry CO[C@H]1O[C@H](CO)[C@@H](OC(=O)Nc2ccc(Oc3ccccc3)cc2)[C@H](OC(=O)Nc2ccc3c(c2)OCO3)[C@H]1OC(=O)Nc1ccc2c(c1)OCO2
Ans: 5.22

Attribution: PubChem BioAssay
